Reference for the values: paper PMC7049685

# testedTarget: Rpo41-Mtf1 (yeast mitochondrial RNA polymerase with initiation factor Mtf1) on promoter DNA (Saccharomyces cerevisiae)
# Construct: assembled on 15S or 21S rRNA promoter DNA; with Mitochondrial transcription factor 1
# Sequence (P13433 whole entry): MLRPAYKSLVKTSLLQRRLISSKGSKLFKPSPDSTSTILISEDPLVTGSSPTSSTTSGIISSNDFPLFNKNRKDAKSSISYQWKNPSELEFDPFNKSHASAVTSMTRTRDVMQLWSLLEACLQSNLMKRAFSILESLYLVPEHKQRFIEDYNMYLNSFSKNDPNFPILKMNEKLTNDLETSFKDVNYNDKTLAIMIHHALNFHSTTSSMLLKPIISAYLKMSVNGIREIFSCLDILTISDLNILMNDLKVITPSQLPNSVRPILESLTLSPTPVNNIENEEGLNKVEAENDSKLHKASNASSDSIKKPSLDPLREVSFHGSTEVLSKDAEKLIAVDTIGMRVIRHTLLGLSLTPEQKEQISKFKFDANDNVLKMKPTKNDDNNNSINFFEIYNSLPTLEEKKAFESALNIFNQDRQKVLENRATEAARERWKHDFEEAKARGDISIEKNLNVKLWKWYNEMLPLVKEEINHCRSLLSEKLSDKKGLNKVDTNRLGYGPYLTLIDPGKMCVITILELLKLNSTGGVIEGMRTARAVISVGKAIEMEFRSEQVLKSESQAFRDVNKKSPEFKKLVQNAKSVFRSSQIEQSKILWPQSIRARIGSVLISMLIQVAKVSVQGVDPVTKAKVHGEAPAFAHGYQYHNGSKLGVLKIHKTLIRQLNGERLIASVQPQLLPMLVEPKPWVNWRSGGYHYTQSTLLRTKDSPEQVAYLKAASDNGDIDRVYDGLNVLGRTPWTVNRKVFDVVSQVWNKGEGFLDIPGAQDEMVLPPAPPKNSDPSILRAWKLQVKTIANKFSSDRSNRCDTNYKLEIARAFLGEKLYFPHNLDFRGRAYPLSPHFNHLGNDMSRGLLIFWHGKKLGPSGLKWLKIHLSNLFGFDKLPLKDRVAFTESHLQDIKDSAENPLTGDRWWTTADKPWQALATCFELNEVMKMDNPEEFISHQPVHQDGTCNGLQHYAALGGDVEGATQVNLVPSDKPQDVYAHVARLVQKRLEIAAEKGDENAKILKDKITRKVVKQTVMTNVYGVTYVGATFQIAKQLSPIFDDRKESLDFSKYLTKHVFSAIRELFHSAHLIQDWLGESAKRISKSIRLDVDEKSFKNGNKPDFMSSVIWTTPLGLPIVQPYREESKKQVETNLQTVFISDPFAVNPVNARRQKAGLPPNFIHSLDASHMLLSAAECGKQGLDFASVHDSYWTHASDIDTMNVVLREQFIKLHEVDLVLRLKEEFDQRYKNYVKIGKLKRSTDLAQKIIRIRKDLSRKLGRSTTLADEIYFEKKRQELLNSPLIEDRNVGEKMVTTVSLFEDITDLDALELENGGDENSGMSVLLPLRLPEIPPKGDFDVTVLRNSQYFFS
# Sequence (P14908 2-341 partner): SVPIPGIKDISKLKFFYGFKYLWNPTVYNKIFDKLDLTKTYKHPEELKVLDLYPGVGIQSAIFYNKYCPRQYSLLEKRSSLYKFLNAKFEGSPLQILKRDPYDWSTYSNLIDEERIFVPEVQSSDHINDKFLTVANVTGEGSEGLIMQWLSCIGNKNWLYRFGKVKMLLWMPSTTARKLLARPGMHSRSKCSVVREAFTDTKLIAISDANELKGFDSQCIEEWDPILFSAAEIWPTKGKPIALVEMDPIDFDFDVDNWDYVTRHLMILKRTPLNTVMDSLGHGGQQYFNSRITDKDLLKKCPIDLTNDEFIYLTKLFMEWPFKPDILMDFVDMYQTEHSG
# assayExplanation: 2-aminopurine fluorescence titration, hyperbolic fit
# Format: binding
# experimentalParameters: composite Kd of +1 and +2 initiating ATP; 15S rRNA AA promoter with 2AP at -1 (200 nM), 400 nM Rpo41 and Mtf1-Δ20, 10 mM Mg acetate, pH 7.5, 25 °C
valueType: pKd
The value called pKd is obtained by taking minus log10 of the concentration in mol/L.

stdin: Would you kindly share the measured pKd for Nc1ncnc2c1ncn2[C@@H]1O[C@H](COP(=O)(O)OP(=O)(O)OP(=O)(O)O)[C@@H](O)[C@H]1O [ATP] ?
stdout: 3.30
